- testSystem: PKR R510Q (Homo sapiens, UniProt P30613, R510Q)
- Sequence (P30613 whole entry R510Q): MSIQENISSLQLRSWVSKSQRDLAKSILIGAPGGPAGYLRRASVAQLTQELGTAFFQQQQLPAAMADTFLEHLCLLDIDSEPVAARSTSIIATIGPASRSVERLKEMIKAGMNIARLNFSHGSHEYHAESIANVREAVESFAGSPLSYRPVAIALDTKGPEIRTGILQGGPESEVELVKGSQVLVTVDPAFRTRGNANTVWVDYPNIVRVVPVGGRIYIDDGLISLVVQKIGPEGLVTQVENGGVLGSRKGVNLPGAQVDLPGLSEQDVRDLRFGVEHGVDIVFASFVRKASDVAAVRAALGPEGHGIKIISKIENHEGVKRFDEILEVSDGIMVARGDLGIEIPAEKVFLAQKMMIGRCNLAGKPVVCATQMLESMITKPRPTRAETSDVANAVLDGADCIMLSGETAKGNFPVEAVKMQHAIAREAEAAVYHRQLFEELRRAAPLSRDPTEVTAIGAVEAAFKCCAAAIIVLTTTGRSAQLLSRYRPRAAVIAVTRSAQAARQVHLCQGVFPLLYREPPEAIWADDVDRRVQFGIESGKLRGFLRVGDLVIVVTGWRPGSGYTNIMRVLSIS
- procedureText: PKR mutant assay (AC50), PKR R510Q
- Format: biochemical
- protocolConditions: PKR R510Q mutant enzyme; read-out: PK R510Q AC50
- Protocol: Example 11. PKR Mutant Assay PKR or PKR mutant enzyme solution was diluted into a reaction mix, which contains 1× buffer (100 mM KCl, 50 mM Tris pH 7.5, 5 mM MgCl2) as well as PEP (cont depends on enzyme), 180 μM NADH, 0.5 units LDH, 1 mM DTT, 0.03% BSA; final assay concentrations after 1.11 fold dilution are indicated. […] 20 uL ADP was added to start reaction at room temperature and reaction progress was measured as changes in absorbance at 340 nm wavelength at room temperature. […]
The following compounds are shown together with reported AC50 values.

Here is how some compounds turned out for AC50.
| compound | testSystem | AC50 |
| --- | --- | --- |
| CN(C)c1cccc(Cn2ncc3c4sc(Cc5cc[nH]n5)nc4n(C)c3c2=O)n1 | PKR R510Q (Homo sapiens, UniProt P30613, R510Q) | < 300 nM |
| Cn1c2nc(Cc3cc[nH]n3)sc2c2cnn(Cc3coc(N)n3)c(=O)c21 | PKR R510Q (Homo sapiens, UniProt P30613, R510Q) | < 300 nM |
| Cn1c2nc(Cc3cc[nH]n3)sc2c2cnn(Cc3ncc(N)s3)c(=O)c21 | PKR R510Q (Homo sapiens, UniProt P30613, R510Q) | < 300 nM |

Note to self: AC50 recorded for Cn1c2nc(C(O)c3cc[nH]n3)sc2c2cnn(Cc3cc[nH]n3)c(=O)c21 (stereo not shown) was < 300 nM

###

- testSystem: wild type PKR (Homo sapiens, UniProt P30613)
- Sequence (P30613 whole entry): as the sequence (P30613 whole entry R510Q) above, with Q510R counted along it
- procedureText: PKR mutant assay (AC50), wild type PKR
- Type: biochemical
- protocolConditions: wild type PKR enzyme; read-out: PKR WT AC50
Some molecules, each annotated with its measured AC50.

Worked set:
| compoundStructureString | AC50 |
| --- | --- |
| Cn1c2nc(Cc3cc[nH]n3)sc2c2cnn(Cc3cc(=O)[nH][nH]3)c(=O)c21 | 301 to 800 nM |
| Cn1c2nc(Cc3cc[nH]n3)sc2c2cnn(Cc3coc(Cl)n3)c(=O)c21 | < 300 nM |
| Cn1c2nc(Cc3cscn3)sc2c2cnn(Cc3cc[nH]n3)c(=O)c21 | < 300 nM |
| Cc1scnc1Cn1ncc2c3sc(Cc4n[nH]cc4F)nc3n(C)c2c1=O | < 300 nM |
| Cn1c2nc(Cn3cccn3)sc2c2cnn(Cc3cc[nH]n3)c(=O)c21 | < 300 nM |
| Cn1c2nc(Cc3cc[nH]n3)sc2c2cnn(Cc3nc(C#N)cs3)c(=O)c21 | < 300 nM |

Form: molecule = Cn1c2nc(Cc3n[nH]cc3F)sc2c2cnn(Cc3cscn3)c(=O)c21 ; AC50 = < 300 nM

Sample Cn1c2nc(Cc3c[nH]nn3)sc2c2cnn(Cc3cccc(N)n3)c(=O)c21 ; AC50 observed: < 300 nM

GET /value?item= Cn1c2nc(Cc3cc[nH]n3)sc2c2cnn(Cc3ccnn3N)c(=O)c21 &field=AC50 returns < 300 nM

Reported AC50 ( Cn1c2nc(Cn3ccc([N+](=O)[O-])n3)sc2c2cnn(Cc3cc[nH]n3)c(=O)c21 ) = < 300 nM

Origin of the recorded values: patent US11040036B2
